This listing pairs molecules with measured Activity.
Biological target: Pyruvate kinase PKLR (Homo sapiens)
Assay: Activation of PKL assessed as pyruvate formation by fluorescent pyruvate kinase-lactate dehydrogenase coupled assay relative to control
Set-up: concentration or dose not given beside the values

A selection of reference data follows.
Fill blank: measured Activity of the molecule COc1cc(F)c(S(=O)(=O)N2CCCN(S(=O)(=O)c3cccc(N)c3)CC2)c(F)c1 is ____. < 30%

So what's the measured Activity for this one? O=S(=O)(c1ccc2c(c1)OCCO2)C1CCN(S(=O)(=O)c2c(F)cccc2F)CC1 < 30%

Endpoint output: Activity of O=S(=O)(c1ccccc1)N1CCN(S(=O)(=O)c2ccc3c(c2)OCCO3)CC1 . Value? < 30%

I'd like to know its Activity. The molecule in question is Nc1cccc(S(=O)(=O)N2CCCN(S(=O)(=O)c3ccc4c(c3)OCCO4)CC2)c1 < 30%

// Activity lookup, key: O=S(=O)(c1ccc(F)cc1)N1CCN(S(=O)(=O)c2ccc3c(c2)OCCO3)CC1 < 30%

Could you tell me which Activity is on file for O=C(c1c(F)cccc1F)N1CCN(S(=O)(=O)c2ccc3c(c2)OCCO3)CC1 ? < 30%

Endpoint output: Activity of O=S(=O)(NCCCCNS(=O)(=O)c1c(F)cccc1F)c1ccc2c(c1)OCCO2 . Value? < 30%

Recorded Activity of O=S(=O)(NCCCNS(=O)(=O)c1c(F)cccc1F)c1ccc2c(c1)OCCO2 , please. < 30%

Look up Activity for this molecule: O=S(=O)(c1ccc2c(c1)OCCO2)N1CCN(S(=O)(=O)c2cc(F)c(F)cc2F)CC1 < 30%

Query (molecule): COc1cc(F)c(S(=O)(=O)N2CCN(S(=O)(=O)c3cccc(N)c3)CC2)c(F)c1 ; field requested: Activity < 30%

New cases:
Param item = N#Cc1ccc(S(=O)(=O)N2CCN(S(=O)(=O)c3ccc4c(c3)OCCO4)CC2)cc1 ; retrieve measured Activity. < 30%

// lookup Activity for O=S(=O)(c1ccc2c(c1)OCCO2)N1CCN(S(=O)(=O)c2cccc[n+]2[O-])CC1 < 30%

Entry O=S(=O)(NCCCCCNS(=O)(=O)c1c(F)cccc1F)c1ccc2c(c1)OCCO2 : reported Activity = ? < 30%

Fill in the blank: the reported Activity of O=C1CN(S(=O)(=O)c2c(F)cccc2F)CCN1S(=O)(=O)c1ccc2c(c1)OCCO2 is ____. < 30%

Param item = O=S(=O)(N[C@H]1CC[C@H](NS(=O)(=O)c2c(F)cccc2F)CC1)c1ccc2c(c1)OCCO2 ; retrieve measured Activity. < 30%

====

Target: Pyruvate kinase PKM (Homo sapiens)
Sequence (P14618 2-531 limits assumed): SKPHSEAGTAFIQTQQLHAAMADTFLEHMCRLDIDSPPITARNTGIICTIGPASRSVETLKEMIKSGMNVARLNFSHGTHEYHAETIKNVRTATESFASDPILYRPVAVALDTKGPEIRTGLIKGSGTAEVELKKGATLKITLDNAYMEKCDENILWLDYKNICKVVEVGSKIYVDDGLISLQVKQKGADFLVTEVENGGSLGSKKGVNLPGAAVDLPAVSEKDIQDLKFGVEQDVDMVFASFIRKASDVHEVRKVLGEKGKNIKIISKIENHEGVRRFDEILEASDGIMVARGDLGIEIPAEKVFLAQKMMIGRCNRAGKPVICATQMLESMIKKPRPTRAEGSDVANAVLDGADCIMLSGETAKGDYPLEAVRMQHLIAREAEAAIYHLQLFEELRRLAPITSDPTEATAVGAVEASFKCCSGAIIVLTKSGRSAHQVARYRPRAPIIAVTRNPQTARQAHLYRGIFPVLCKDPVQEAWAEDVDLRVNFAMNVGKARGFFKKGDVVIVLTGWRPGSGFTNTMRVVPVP
Assay: Activation of PKM2 assessed as ATP product formation at 57 uM by luminescent pyruvate kinase-luciferase coupled assay relative to fructose-1,6-bis-phosphate
Respond with y for Activity values of 90% and above, n for values below.

Use these answered entries as a reference point.
Test whether the compound Nc1cccc(S(=O)(=O)N2CCCN(S(=O)(=O)c3ccc4c(c3)OCCO4)CC2)c1 records Activity of 90% or higher. n

Please tell me: is the compound O=S(=O)(c1ccc2ccccc2c1)N1CCN(S(=O)(=O)c2c(F)cccc2F)CC1 at or over 90% in terms of Activity? y

Next:
Decide: Activity of O=S(=O)(N[C@H]1CC[C@@H](NS(=O)(=O)c2c(F)cccc2F)CC1)c1ccc2c(c1)OCCO2 >= 90%? n

Entry C[C@H]1CN(S(=O)(=O)c2ccc3c(c2)OCCO3)CCN1S(=O)(=O)c1c(F)cccc1F : is its Activity no less than 90%? y

Would you say O=S(=O)(c1ccc2c(c1)OCCO2)N1CCN(S(=O)(=O)c2cc(F)c(F)cc2F)CC1 shows Activity at minimum 90%? y
